B1: ZNF511 (parent)
chain: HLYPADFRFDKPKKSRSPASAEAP

variants of: B1; test: protein stability index of a GFP-peptide fusion (GPS, HEK-293T) (PSI 1-6); higher = more stable; conditions: c terminus: a fixed tail appended;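 further: lentivirally expressed fusions sorted by FACS into six bins by GFP to DsRed ratio, PSI derived from sequencing read proportions per bin multiplied by bin number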
# protein stability index annotations

construct sequence | protein stability index
HLYPADFRFDKPKKSRSPASAFAP [E22F] | 2.52
HLYPADFRFDKPKKSRNPASAEAP [S17N] | 3.16
HLYPADFRFNKPKKSRSPASAEAP [D10N] | 2.39
HLYPADFRFDKPKKSFSPASAEAP [R16F] | 2.73
HLYIADFRFDKPKKSRSPASAEAP [P4I] | 3.56
HLYPADFRFDKPKKSCSPASAEAP [R16C] | 2.54
HLYPADFRFDKPKKSRSLASAEAP [P18L] | 2.73
HLYPADFVFDKPKKSRSPASAEAP [R8V] | 1.6
HLYPAQFRFDKPKKSRSPASAEAP [D6Q] | 2.18
